conditions: Cottonseed oil; heating temp. 60 °C, obs. temp. 25 °C
property: Approximate Solubility (mg/mL) in Excipient: Cottonseed oil

C=C1CC[C@@]2(O)C3Cc4ccc(OCOC(=O)CCCCCCCCCCCCCCC)c5c4[C@@]2(CCN3CC2CC2)[C@H]1O5 ... >395.5 mg/mL

I'd like to know its Approximate Solubility (mg/mL) in Excipient: Cottonseed oil. The compound in question is C=C1CC[C@@]2(O)C3Cc4ccc(OC(=O)CCCCCCC/C=C/CCCCCCCC)c5c4[C@@]2(CCN3CC2CC2)[C@H]1O5
>402.6 mg/mL

I'd like to know its Approximate Solubility (mg/mL) in Excipient: Cottonseed oil. The compound in question is C=C1CC[C@@]2(O)C3Cc4ccc(OCOC(=O)CCCCCCCCCCC)c5c4[C@@]2(CCN3CC2CC2)[C@H]1O5
>407 mg/mL

I'd like to know its Approximate Solubility (mg/mL) in Excipient: Cottonseed oil. The compound in question is CCCCCCCCCCCCCCCCCCCCCC(=O)Oc1ccc2c3c1O[C@H]1C(=O)CC[C@@]4(O)C(C2)N(CC2CC2)CC[C@]314
<50 mg/mL

I'd like to know its Approximate Solubility (mg/mL) in Excipient: Cottonseed oil. The compound in question is C=C1CC[C@@]2(O)C3Cc4ccc(OCOC(=O)OCCCCCCCCCCCCCC)c5c4[C@@]2(CCN3CC2CC2)[C@H]1O5
>414 mg/mL

I'd like to know its Approximate Solubility (mg/mL) in Excipient: Cottonseed oil. The compound in question is C=C1CC[C@@]2(O)C3Cc4ccc(OC(=O)CCCCCCCCCCCCCCC)c5c4[C@@]2(CCN3CC2CC2)[C@H]1O5
<50 mg/mL

I'd like to know its Approximate Solubility (mg/mL) in Excipient: Cottonseed oil. The compound in question is C=C1CC[C@@]2(O)C3Cc4ccc(OC(=O)CCCCCCCCCCC/C=C\CCCCCCCC)c5c4[C@@]2(CCN3CC2CC2)[C@H]1O5
<50 mg/mL

I'd like to know its Approximate Solubility (mg/mL) in Excipient: Cottonseed oil. The compound in question is CCCCCCCC/C=C\CCCCCCCCCCCC(=O)Oc1ccc2c3c1O[C@H]1C(=O)CC[C@@]4(O)C(C2)N(CC2CC2)CC[C@]314
67 to 80 mg/mL

I'd like to know its Approximate Solubility (mg/mL) in Excipient: Cottonseed oil. The compound in question is C=C1CC[C@@]2(O)C3Cc4ccc(OC(=O)OCCCCCCCCCCCCCCCCCCCC)c5c4[C@@]2(CCN3CC2CC2)[C@H]1O5
<50.2 mg/mL

I'd like to know its Approximate Solubility (mg/mL) in Excipient: Cottonseed oil. The compound in question is C=C1CC[C@@]2(O)C3Cc4ccc(OC(=O)CCCCCCC/C=C\C/C=C\C/C=C\CC)c5c4[C@@]2(CCN3CC2CC2)[C@H]1O5
68 to 82 mg/mL

I'd like to know its Approximate Solubility (mg/mL) in Excipient: Cottonseed oil. The compound in question is C=C1CC[C@@]2(O)C3Cc4ccc(OC(=O)OCCCCCCCCCCCCCCC)c5c4[C@@]2(CCN3CC2CC2)[C@H]1O5
>395.8 mg/mL

I'd like to know its Approximate Solubility (mg/mL) in Excipient: Cottonseed oil. The compound in question is CCCCCCCCCCCCCC(=O)Oc1ccc2c3c1O[C@H]1C(=O)CC[C@@]4(O)C(C2)N(CC2CC2)CC[C@]314
>423.7 mg/mL

I'd like to know its Approximate Solubility (mg/mL) in Excipient: Cottonseed oil. The compound in question is C=C1CC[C@@]2(O)C3Cc4ccc(OCOC(=O)OCCCCCCCCCCCC)c5c4[C@@]2(CCN3CC2CC2)[C@H]1O5
>403 mg/mL

I'd like to know its Approximate Solubility (mg/mL) in Excipient: Cottonseed oil. The compound in question is C=C1CC[C@@]2(O)C3Cc4ccc(OC(=O)OCCCCCCCCCCCCCCCCCC)c5c4[C@@]2(CCN3CC2CC2)[C@H]1O5
<50 mg/mL

I'd like to know its Approximate Solubility (mg/mL) in Excipient: Cottonseed oil. The compound in question is CCCCCCCCCCCCCCCCOC(=O)OCOc1ccc2c3c1O[C@H]1C(=O)CC[C@@]4(O)C(C2)N(CC2CC2)CC[C@]314
>405.5 mg/mL

I'd like to know its Approximate Solubility (mg/mL) in Excipient: Cottonseed oil. The compound in question is CCCCCCCCCCCCOC(=O)OCOc1ccc2c3c1O[C@H]1C(=O)CC[C@@]4(O)C(C2)N(CC2CC2)CC[C@]314
>410.2 mg/mL

I'd like to know its Approximate Solubility (mg/mL) in Excipient: Cottonseed oil. The compound in question is CCCCCCCCCCCCCCC(=O)Oc1ccc2c3c1O[C@H]1C(=O)CC[C@@]4(O)C(C2)N(CC2CC2)CC[C@]314
101.8 to 203.6 mg/mL

I'd like to know its Approximate Solubility (mg/mL) in Excipient: Cottonseed oil. The compound in question is CCCCCCCCCCCCCCOC(=O)OCOc1ccc2c3c1O[C@H]1C(=O)CC[C@@]4(O)C(C2)N(CC2CC2)CC[C@]314
>394.7 mg/mL

I'd like to know its Approximate Solubility (mg/mL) in Excipient: Cottonseed oil. The compound in question is C=C1CC[C@@]2(O)C3Cc4ccc(OC(=O)OCCCCCCCCCCCCCC)c5c4[C@@]2(CCN3CC2CC2)[C@H]1O5
>416.9 mg/mL

I'd like to know its Approximate Solubility (mg/mL) in Excipient: Cottonseed oil. The compound in question is C=C1CC[C@@]2(O)C3Cc4ccc(OC(=O)CCCCCCC/C=C\C/C=C\CCCCC)c5c4[C@@]2(CCN3CC2CC2)[C@H]1O5
68.5-82^ mg/mL
